Value source: PubChem BioAssay

Assay: basal S. cerevisiae growth modulation, no modifier, primary screen, OD600, strain BY4716, 24 h, basal condition (AID 1173)
Settings: OD600, 24 h, higher = more signal, called active from +8 up or from −8 down
Label rule, in plain words: z-score of -0.2 and up is fulfilled, under -0.2 is not fulfilled.

{"compound": "COc1cc(C(O)C2C=CC3C(=O)NC(=O)C3N2Nc2ccccn2)cc(OC)c1OC (configuration not stated)", "label value": "fulfilled"}
{"compound": "O=C1c2ccccc2[C@](Cc2ccccc2I)(C(=O)NCCN2CCOCC2)[C@H](c2ccc(CO)cc2)N1C1CCCCC1", "label value": "not fulfilled"}
{"compound": "NC(=O)N1C(=O)C2C(C1=O)C1C=C(c3ccc(CO)cc3)C2C(c2cccs2)N1Cc1cccc(OC(F)(F)F)c1 (configuration not stated)", "label value": "not fulfilled"}
{"compound": "Cc1ccc(S[C@]2(C(=O)O)CC(=O)N(C(C)C)[C@@H]2c2ccc(CO)cc2I)cc1", "label value": "not fulfilled"}
{"compound": "O=C(NCCO)C1=C[C@H](Oc2ccccc2I)[C@@H](O)[C@H](N(Cc2ccco2)C(=O)Cc2ccccc2)C1", "label value": "not fulfilled"}
{"compound": "C=CCN1C(=O)[C@]2(O[C@H](CCn3cc([C@H](O)c4ccccc4)nn3)[C@@H]([Si](C)(C)c3ccc(OC)cc3)[C@@H]2C)c2ccccc21", "label value": "not fulfilled"}
{"compound": "COC(=O)[C@@]1(Cc2ccc(F)cc2)[C@H]2c3cc(C(=O)N(C)C)n(Cc4cc(F)c(F)c(F)c4)c3C[C@H]2CN1C(=O)c1ccccc1", "label value": "fulfilled"}
